# System: BCL2 WT (Homo sapiens (Human), UniProt P10415)
# Sequence (P10415 other isoform, or with tags, fused parts or gaps): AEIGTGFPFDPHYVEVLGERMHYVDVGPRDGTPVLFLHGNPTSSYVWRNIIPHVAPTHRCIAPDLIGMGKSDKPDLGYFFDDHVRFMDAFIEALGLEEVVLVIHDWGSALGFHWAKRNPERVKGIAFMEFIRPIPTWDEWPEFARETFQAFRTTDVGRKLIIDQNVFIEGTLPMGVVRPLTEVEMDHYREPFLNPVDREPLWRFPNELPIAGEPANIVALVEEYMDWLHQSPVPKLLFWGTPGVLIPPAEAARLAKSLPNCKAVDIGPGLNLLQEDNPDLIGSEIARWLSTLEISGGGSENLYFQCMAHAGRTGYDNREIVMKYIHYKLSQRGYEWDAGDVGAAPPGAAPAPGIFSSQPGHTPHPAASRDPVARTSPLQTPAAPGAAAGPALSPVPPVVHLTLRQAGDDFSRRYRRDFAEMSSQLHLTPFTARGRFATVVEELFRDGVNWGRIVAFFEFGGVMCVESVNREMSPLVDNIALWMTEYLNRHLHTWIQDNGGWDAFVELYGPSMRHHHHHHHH
# Run description: TR-FRET competitive binding assay, BCL2 WT
# Experimental setup: Ki determined from IC50, read-out: TR_FRET EKI_Bcl2 WT
pKi: −log10 of the molar value.
Readout label: pKi

[[record]]
compound = "Cc1c(N(C(=O)c2cc(-c3cc4c(cc3C(=O)N3Cc5ccccc5C[C@H]3C)CN(C(=O)Cc3ccc(N5CCN6CCOC[C@@H]6C5)cc3F)CC4)n(C)c2C)c2ccc(O)cc2)cc(C#N)n1C [Example 45]"
quantitative_readout = 10.10

[[record]]
compound = "Cc1c(N(C(=O)c2cc(-c3cc4c(cc3C(=O)N3Cc5ccccc5C[C@H]3CN3CCCCC3)CN(C(=O)Cc3ccc(OC(C)(C)CN5CCOCC5)cc3)CC4)n(C)c2C)c2ccc(O)cc2)cc(C#N)n1C [Example 132]"
quantitative_readout = 9.85

[[record]]
compound = "COc1ncc(N(C(=O)c2cc(-c3cc4c(cc3C(=O)N3Cc5ccccc5C[C@H]3C)CN(C(=O)Cc3ccc(OCCN5CCOCC5)cc3)CC4)n(C)c2C)c2ccccc2)cc1C#N [Example 201]"
quantitative_readout = 10.30

[[record]]
compound = "Cc1c(C(=O)N(c2ccc(O)cc2)c2cnn(C(F)F)c2)cc(-c2cc3c(cc2C(=O)N2Cc4ccccc4C[C@H]2C)CN(C(=O)Cc2ccc(OCCN4CCOCC4)cc2F)CC3)n1C [Example 186]"
quantitative_readout = 11.00

[[record]]
compound = "COc1cc(OCCN2CCOCC2)ccc1CC(=O)N1CCc2cc(-c3cc(C(=O)N(c4ccc(O)cc4)c4cc(C#N)n(C)c4C)c(C)n3C)c(C(=O)N3Cc4ccccc4C[C@H]3CN3CCCCC3)cc2C1 [Example 114]"
quantitative_readout = 10.30

[[record]]
compound = "Cc1c(N(C(=O)c2cc(-c3cc4c(cc3C(=O)N3Cc5ccccc5C[C@H]3C)CN(C(=O)Cc3cccc(N5CCOCC5)c3)CC4)n(C)c2C)c2ccc(O)cc2)cc(C#N)n1C [Example 6]"
quantitative_readout = 9.89

[[record]]
compound = "Cc1c(N(C(=O)c2cc(-c3cc4c(cc3C(=O)N3Cc5ccccc5C[C@H]3CN3CCCCC3)CN(C(=O)Cc3ccc(OCC(C)N5CCOCC5)cc3F)CC4)n(C)c2C)c2ccc(O)cc2)cc(C#N)n1C (single isomer, unassigned) [Example 141]"
quantitative_readout = 10.22

[[record]]
compound = "Cc1c(N(C(=O)c2cc(-c3cc4c(cc3C(=O)N3Cc5ccccc5C[C@H]3C)CN(C(=O)Cc3ccc(OCCN5CCN(C6CC6)CC5)cc3)CC4)n(C)c2C)c2ccc(O)cc2)cc(C#N)n1C [Example 31]"
quantitative_readout = 9.96

[[record]]
compound = "Cc1c(N(C(=O)c2cc(-c3cc4c(cc3C(=O)N3Cc5ccccc5C[C@H]3CN3CC[C@@H](F)C3)CN(C(=O)Cc3ccc(OCCC5CCOCC5)cc3)CC4)n(C)c2C)c2ccc(O)cc2)cc(C#N)n1C [Example 79]"
quantitative_readout = 9.59


* * *

# System: BCL2 WT (Homo sapiens (Human), UniProt P10415)
# Run description: TR-FRET competitive binding assay, BCL2 WT
# Experimental setup: Ki determined from IC50, read-out: TR_FRET EKI_Bcl2
pKi: −log10 of the molar value.
Readout label: pKi

[[record]]
compound = "Cc1c(C(=O)N(c2ccccc2)c2cnn(C(F)F)c2)cc(-c2cc3c(cc2C(=O)N2Cc4ccccc4C[C@H]2C)CN(C(=O)Cc2ccc(OCCC4CCN(C)CC4)cc2)CC3)n1C [Example 238]"
quantitative_readout = 10.19

[[record]]
compound = "Cc1c(C(=O)N(c2ccccc2)c2cnn(C)c2)cc(-c2cc3c(cc2C(=O)N2Cc4ccccc4C[C@H]2C)CN(C(=O)Cc2ccc(OCCN(C)C)cc2F)CC3)n1C [Example 239]"
quantitative_readout = 10.18

[[record]]
compound = "Cc1c(C(=O)N(c2ccccc2)c2cnn(C(F)F)c2)cc(-c2cc3c(cc2C(=O)N2Cc4ccccc4C[C@H]2CN2CCCCC2)CN(C(=O)Cc2ccc(OCCC4CCOCC4)cc2)CC3)n1C [Example 241]"
quantitative_readout = 9.61

